assay: Ex vivo biodistribution in tissues by gamma counting; design: species or system rat; details: Lewis, rat, in vivo, total radioactivity, Biodistribution: Liver

| compound | tissue uptake at 1.5 h |
| --- | --- |
| N=C(N)NCCC[C@@H]1NC(=O)[C@H](CCCCNC(=O)CCC(C(=O)O)N2CCN(CC(=O)O)CCN(CC(=O)O)CC2)NC(=O)[C@@H](Cc2ccc(O)cc2)NC(=O)[C@H](CC(=O)O)NC(=O)CNC1=O (stereo partly shown) [^68Ga-NODAGA-RGD, ^68Ga-NODAGA-cyclo(RGDyK), metal not drawn] | 0.23 %ID/g |

---

tested on: αvβ3 integrin; assay: in vivo; conditions: male, Lewis, rat, in vivo, iv, total radioactivity

| molecule | tissue uptake per volume at 1.375 h (%ID/mL) |
| --- | --- |
| N=C(N)NCCC[C@@H]1NC(=O)[C@H](CCCCNC(=O)CCC(C(=O)O)N2CCN(CC(=O)O)CCN(CC(=O)O)CC2)NC(=O)[C@@H](Cc2ccc(O)cc2)NC(=O)[C@H](CC(=O)O)NC(=O)CNC1=O (stereo partly shown) [^68Ga-NODAGA-RGD, ^68Ga-NODAGA-cyclo(RGDyK), metal not drawn] | 0.17 |

---

assay: Ex vivo biodistribution in tissues by gamma counting; parameters: species or system rat; settings: Lewis, rat, in vivo, total radioactivity, rat, 90 min p.i., mean ± SD; read-out: Biodistribution: Urine

| compound | unitInfo | tissue uptake at 1.5 h |
| --- | --- | --- |
| N=C(N)NCCC[C@@H]1NC(=O)[C@H](CCCCNC(=O)CCP(=O)(O)CN2CCN(CP(=O)(O)CCC(=O)NCCCC[C@@H]3NC(=O)[C@@H](Cc4ccccc4)NC(=O)[C@H](CC(=O)O)NC(=O)CNC(=O)[C@H](CCCNC(=N)N)NC3=O)CCN(CP(=O)(O)CCC(=O)NCCCC[C@@H]3NC(=O)[C@@H](Cc4ccccc4)NC(=O)[C@H](CC(=O)O)NC(=O)CNC(=O)[C@H](CCCNC(=N)N)NC3=O)CC2)NC(=O)[C@@H](Cc2ccccc2)NC(=O)[C@H](CC(=O)O)NC(=O)CNC1=O [^68Ga-TRAP(RGD)3, ^68Ga-TRAP(cyclo(RGDfK))3, metal not drawn] | %ID/g | 35.1 |

---

test: Ex vivo biodistribution in tissues by gamma counting; parameters: species or system rat; conditions: Lewis, rat, in vivo, total radioactivity, rat, 90 min p.i., mean ± SD; read-out: Biodistribution: Blood

| molecule | unitInfo | tissue uptake at 1.5 h |
| --- | --- | --- |
| N=C(N)NCCC[C@@H]1NC(=O)[C@H](CCCCNC(=O)CCP(=O)(O)CN2CCN(CP(=O)(O)CCC(=O)NCCCC[C@@H]3NC(=O)[C@@H](Cc4ccccc4)NC(=O)[C@H](CC(=O)O)NC(=O)CNC(=O)[C@H](CCCNC(=N)N)NC3=O)CCN(CP(=O)(O)CCC(=O)NCCCC[C@@H]3NC(=O)[C@@H](Cc4ccccc4)NC(=O)[C@H](CC(=O)O)NC(=O)CNC(=O)[C@H](CCCNC(=N)N)NC3=O)CC2)NC(=O)[C@@H](Cc2ccccc2)NC(=O)[C@H](CC(=O)O)NC(=O)CNC1=O [^68Ga-TRAP(RGD)3, ^68Ga-TRAP(cyclo(RGDfK))3, metal not drawn] | %ID/g | 0.101 |

---

experiment: Ex vivo biodistribution in tissues by gamma counting; parameters: species or system rat; details: Lewis, rat, in vivo, total radioactivity, rat, 90 min p.i., mean ± SD; contralateral to the wound; read-out: Biodistribution: Connective tissue

| compound | tissue uptake at 1.5 h, %ID/g |
| --- | --- |
| N=C(N)NCCC[C@@H]1NC(=O)[C@H](CCCCNC(=O)CCP(=O)(O)CN2CCN(CP(=O)(O)CCC(=O)NCCCC[C@@H]3NC(=O)[C@@H](Cc4ccccc4)NC(=O)[C@H](CC(=O)O)NC(=O)CNC(=O)[C@H](CCCNC(=N)N)NC3=O)CCN(CP(=O)(O)CCC(=O)NCCCC[C@@H]3NC(=O)[C@@H](Cc4ccccc4)NC(=O)[C@H](CC(=O)O)NC(=O)CNC(=O)[C@H](CCCNC(=N)N)NC3=O)CC2)NC(=O)[C@@H](Cc2ccccc2)NC(=O)[C@H](CC(=O)O)NC(=O)CNC1=O [^68Ga-TRAP(RGD)3, ^68Ga-TRAP(cyclo(RGDfK))3, metal not drawn] | 0.19 |

---

Assay: Ex vivo biodistribution in tissues by gamma counting
Set-up: species or system rat
Conditions: Lewis, rat, in vivo, total radioactivity, Biodistribution: Remote myocardium
Method: Rats were anesthetised using 1.5% isoflurane and were injected via tail vein catheter with ^18F-galacto-RGD (37 MBq, n = 9), ^68Ga-NODAGA-RGD (69 MBq, n = 10) or of ^68Ga-TRAP(RGD)3 (54 MBq, n = 12). Rats were kept under anaesthesia in a warmed bed until euthanized after 90 min using intravenous injection of 150 mg/kg of pentobarbiturate (Narcoren®, Merial, Rohrdorf, Germany). The heart was excised and cut transaxially at the location of the infarct. […]

| molecule | tissue uptake at 1.5 h (%ID/g) |
| --- | --- |
| N=C(N)NCCC[C@@H]1NC(=O)[C@H](CCCCNC(=O)CCC(C(=O)O)N2CCN(CC(=O)O)CCN(CC(=O)O)CC2)NC(=O)[C@@H](Cc2ccc(O)cc2)NC(=O)[C@H](CC(=O)O)NC(=O)CNC1=O (stereo partly shown) [^68Ga-NODAGA-RGD, ^68Ga-NODAGA-cyclo(RGDyK), metal not drawn] | 0.071 |

---

assay: Ex vivo biodistribution in tissues by gamma counting; parameters: species or system rat; settings: Lewis, rat, in vivo, total radioactivity, Biodistribution: Wound
assayEndpoint: tissue uptake at 1.5 h (%ID/g)

| compound | unitInfo | measuredValue |
| --- | --- | --- |
| N=C(N)NCCC[C@@H]1NC(=O)[C@H](CCCCNC(=O)CCC(C(=O)O)N2CCN(CC(=O)O)CCN(CC(=O)O)CC2)NC(=O)[C@@H](Cc2ccc(O)cc2)NC(=O)[C@H](CC(=O)O)NC(=O)CNC1=O (stereo partly shown) [^68Ga-NODAGA-RGD, ^68Ga-NODAGA-cyclo(RGDyK), metal not drawn] | %ID/g | 0.27 |

---

test: Ex vivo biodistribution in tissues by gamma counting; design: species or system rat; conditions: Lewis, rat, in vivo, total radioactivity, Biodistribution: Urine

| compound | tissue uptake at 1.5 h |
| --- | --- |
| N=C(N)NCCC[C@@H]1NC(=O)[C@H](CCCCNC(=O)CCC(C(=O)O)N2CCN(CC(=O)O)CCN(CC(=O)O)CC2)NC(=O)[C@@H](Cc2ccc(O)cc2)NC(=O)[C@H](CC(=O)O)NC(=O)CNC1=O (stereo partly shown) [^68Ga-NODAGA-RGD, ^68Ga-NODAGA-cyclo(RGDyK), metal not drawn] | 20.2 %ID/g |

---

experiment: Ex vivo biodistribution in tissues by gamma counting; set-up: species or system rat; details: Lewis, rat, in vivo, total radioactivity, Biodistribution: Blood
assayEndpoint: tissue uptake at 1.5 h (%ID/g)

| compound | assayEndpoint | unitInfo | measuredValue |
| --- | --- | --- | --- |
| N=C(N)NCCC[C@@H]1NC(=O)[C@H](CCCCNC(=O)CCC(C(=O)O)N2CCN(CC(=O)O)CCN(CC(=O)O)CC2)NC(=O)[C@@H](Cc2ccc(O)cc2)NC(=O)[C@H](CC(=O)O)NC(=O)CNC1=O (stereo partly shown) [^68Ga-NODAGA-RGD, ^68Ga-NODAGA-cyclo(RGDyK), metal not drawn] | tissue uptake at 1.5 h | %ID/g | 0.058 |

---

experiment: Ex vivo biodistribution in tissues by gamma counting; parameters: species or system rat; conditions: Lewis, rat, in vivo, total radioactivity, rat, 90 min p.i., mean ± SD; read-out: Biodistribution: Muscle

| compound | tissue uptake at 1.5 h |
| --- | --- |
| N=C(N)NCCC[C@@H]1NC(=O)[C@H](CCCCNC(=O)CCP(=O)(O)CN2CCN(CP(=O)(O)CCC(=O)NCCCC[C@@H]3NC(=O)[C@@H](Cc4ccccc4)NC(=O)[C@H](CC(=O)O)NC(=O)CNC(=O)[C@H](CCCNC(=N)N)NC3=O)CCN(CP(=O)(O)CCC(=O)NCCCC[C@@H]3NC(=O)[C@@H](Cc4ccccc4)NC(=O)[C@H](CC(=O)O)NC(=O)CNC(=O)[C@H](CCCNC(=N)N)NC3=O)CC2)NC(=O)[C@@H](Cc2ccccc2)NC(=O)[C@H](CC(=O)O)NC(=O)CNC1=O [^68Ga-TRAP(RGD)3, ^68Ga-TRAP(cyclo(RGDfK))3, metal not drawn] | 0.066 %ID/g |

---

Assay: Ex vivo biodistribution in tissues by gamma counting
Parameters: species or system rat
Conditions: Lewis, rat, in vivo, total radioactivity, rat, 90 min p.i., mean ± SD; contains both infarct and remote areas; read-out: Biodistribution: Apical myocardium
Method: Rats were anesthetised using 1.5% isoflurane and were injected via tail vein catheter with ^18F-galacto-RGD (37 MBq, n = 9), ^68Ga-NODAGA-RGD (69 MBq, n = 10) or of ^68Ga-TRAP(RGD)3 (54 MBq, n = 12). Rats were kept under anaesthesia in a warmed bed until euthanized after 90 min using intravenous injection of 150 mg/kg of pentobarbiturate (Narcoren®, Merial, Rohrdorf, Germany). The heart was excised and cut transaxially at the location of the infarct. […]
assayEndpoint: tissue uptake at 1.5 h (%ID/g)

| compound | measuredValue |
| --- | --- |
| N=C(N)NCCC[C@@H]1NC(=O)[C@H](CCCCNC(=O)CCP(=O)(O)CN2CCN(CP(=O)(O)CCC(=O)NCCCC[C@@H]3NC(=O)[C@@H](Cc4ccccc4)NC(=O)[C@H](CC(=O)O)NC(=O)CNC(=O)[C@H](CCCNC(=N)N)NC3=O)CCN(CP(=O)(O)CCC(=O)NCCCC[C@@H]3NC(=O)[C@@H](Cc4ccccc4)NC(=O)[C@H](CC(=O)O)NC(=O)CNC(=O)[C@H](CCCNC(=N)N)NC3=O)CC2)NC(=O)[C@@H](Cc2ccccc2)NC(=O)[C@H](CC(=O)O)NC(=O)CNC1=O [^68Ga-TRAP(RGD)3, ^68Ga-TRAP(cyclo(RGDfK))3, metal not drawn] | 0.353 |
